- TEST_METHOD_NOTES: in vitro
- CONDITION_SET: human

COMPOUND	CC50
O=c1[nH]c(=O)n([C@H]2C[C@H](O)[C@@H](CO)O2)cc1F [FdU, 5-fluorodeoxyuridine]	60 µg/mL
O=c1[nH]c(=O)n([C@H]2C[C@H](O)[C@@H](CO)O2)cc1C(F)(F)F [TFT, trifluridine]	> 100 µg/mL
O=c1[nH]c(=O)n([C@H]2C[C@H](O)[C@@]3(CO)CC23)cc1Br (some centres unmarked) [N-MCBrU]	> 100 µg/mL
Nc1nc2c(ncn2COCCO)c(=O)[nH]1 [ACV, acyclovir]	> 100 µg/mL
O=c1[nH]c(=O)n([C@@H]2O[C@H](CO)[C@@H](O)[C@@H]2O)cc1/C=C/Br [BVAU, sorivudine]	> 100 µg/mL

###

- Test system: CV strain TK:GFP lacZ (TK−)
- TEST_METHOD_NOTES: microbe, parasite or virus in culture
- Format: cell-based
- CONDITION_SET: Cowpox virus, Vero, read-out: CV TK:GFP lacZ EC50 (TK−)

RECORD_SMILES	TARGET_DESC	QUANTITY_UNIT	VALUE_OPERATOR	EC50
O=c1[nH]c(=O)n([C@@H]2O[C@H](CO)[C@@H](O)[C@@H]2O)cc1/C=C/Br	CV strain TK:GFP lacZ (TK−)	µg/mL	>	30
O=c1[nH]c(=O)n([C@H]2C[C@H](O)[C@@H](CO)O2)cc1Br	CV strain TK:GFP lacZ (TK−)	µg/mL	=	19
Nc1nc2c(ncn2COCCO)c(=O)[nH]1	CV strain TK:GFP lacZ (TK−)	µg/mL	>	30
Nc1nc(=O)n([C@@H]2O[C@H](CO)[C@@H](O)[C@@H]2F)cc1I	CV strain TK:GFP lacZ (TK−)	µg/mL	=	9.2
O=c1[nH]c(=O)n([C@@H]2O[C@H](CO)[C@@H](O)[C@@H]2F)cc1I	CV strain TK:GFP lacZ (TK−)	µg/mL	=	19
O=c1[nH]c(=O)n([C@H]2C[C@H](O)[C@@H](CO)O2)cc1C(F)(F)F	CV strain TK:GFP lacZ (TK−)	µg/mL	=	0.72
O=c1[nH]c(=O)n([C@H]2C[C@H](O)[C@@H](CO)O2)cc1F	CV strain TK:GFP lacZ (TK−)	µg/mL	=	0.37
Nc1ncnc2c1ncn2[C@@H]1O[C@H](CO)[C@@H](O)[C@@H]1O	CV strain TK:GFP lacZ (TK−)	µg/mL	=	0.78
O=c1[nH]c(=O)n([C@H]2C[C@H](O)[C@@H](CO)O2)cc1I	CV strain TK:GFP lacZ (TK−)	µg/mL	=	16
O=c1[nH]c(=O)n([C@H]2C[C@H](O)[C@@H](CO)O2)cc1/C=C/Br	CV strain TK:GFP lacZ (TK−)	µg/mL	>	30
Nc1ccn(C[C@@H](CO)OCP(=O)(O)O)c(=O)n1	CV strain TK:GFP lacZ (TK−)	µg/mL	=	3.3

###

- Tested on: HSV-1 strain F
- TEST_METHOD_NOTES: microbe, parasite or virus in culture
- Assay type: cell-based, herpes simplex virus
- CONDITION_SET: Human alphaherpesvirus 1, HFF, read-out: HSV-1 F EC50 (TK+)
PROPERTY_MEASURED: EC50 (µg/mL)

RECORD_SMILES	PROPERTY_MEASURED	NUMERIC_VALUE
O=c1[nH]c(=O)n([C@@H]2O[C@H](CO)[C@@H](O)[C@@H]2F)cc1I	EC50	0.05
Nc1nc(=O)n([C@@H]2O[C@H](CO)[C@@H](O)[C@@H]2F)cc1I	EC50	0.06
O=c1[nH]c(=O)n([C@H]2C[C@H](O)[C@@H](CO)O2)cc1I	EC50	2.1
O=c1[nH]c(=O)n([C@H]2C[C@H](O)[C@@H](CO)O2)cc1F	EC50	2.5
Nc1ccn(C[C@@H](CO)OCP(=O)(O)O)c(=O)n1	EC50	1.5
O=c1[nH]c(=O)n([C@H]2C[C@H](O)[C@@H](CO)O2)cc1Br	EC50	1.6
O=c1[nH]c(=O)n([C@H]2C[C@H](O)[C@@H](CO)O2)cc1C(F)(F)F	EC50	1
Nc1nc2c(ncn2COCCO)c(=O)[nH]1	EC50	0.35
O=c1[nH]c(=O)n([C@H]2C[C@H](O)[C@@H](CO)O2)cc1/C=C/Br	EC50	0.09
O=c1[nH]c(=O)n([C@@H]2O[C@H](CO)[C@@H](O)[C@@H]2O)cc1/C=C/Br	EC50	0.05
Nc1ncnc2c1ncn2[C@@H]1O[C@H](CO)[C@@H](O)[C@@H]1O	EC50	6.4

Just for reference, patent US20090221523A1 is where these values come from.
